- testSummary: Inhibition against Alpha-maninosidase in jack bean
- Design: species or system Canavalia ensiformis
measuredQuantity: Ki (µM)

1) CO[C@H]1O[C@@H](CNC2=N[C@@H](CO)[C@@H](O)[C@H](O)[C@@H]2O)[C@@H](O)[C@H](O)[C@H]1O    2.6
2) OCC1CCCC(NCc2ccccc2)=N1 (centres undefined)    1400
3) OC[C@@H]1N=C(NCc2ccccc2)[C@@H](O)[C@@H](O)[C@@H]1O    0.55
4) c1ccc(CNC2=NCCCC2)cc1    14000
